assay: in vivo; parameters: species or system mice; details: male, NODSCID 1L2RγKO, mouse, iv, total radioactivity, Seminal uptake
Answer each item with its documented tissue uptake at 1 h.
Express the result in %ID/g but write the number alone.

Sure, the documented tissue uptake at 1 h for COc1ccc(CCCC(=O)NCC(=O)N[C@@H](CCCCNC(=O)CN2CCN(CC(=O)O)CCN(CC(=O)O)CCN(CC(=O)O)CC2)C(=O)NC[C@H]2CC[C@H](C(=O)N[C@@H](Cc3c4ccccc4cc4ccccc34)C(=O)NCCCC[C@H](NC(=O)N[C@@H](CSCC(=O)O)C(=O)O)C(=O)O)CC2)cc1 [177Lu-HTK04048, metal not drawn] is 1.14

Sure, the documented tissue uptake at 1 h for O=C(O)CCC[C@H](NC(=O)N[C@@H](CCCCNC(=O)[C@H](Cc1c2ccccc2cc2ccccc12)NC(=O)[C@H]1CC[C@H](CNC(=O)[C@H](CCCCNC(=O)CN2CCN(CC(=O)O)CCN(CC(=O)O)CCN(CC(=O)O)CC2)NC(=O)CNC(=O)CCCc2ccc(Cl)cc2)CC1)C(=O)O)C(=O)O [177Lu-HTK03153, metal not drawn] is 1.3

----------
Answer each item with its documented Blood: Salivary ratio.
tested on: PSMA-expressing LNCaP cancer xenografts; details: mouse, in vivo
# respond with the number and nothing more

Sure, the documented Blood: Salivary ratio for O=C(O)CCCCC(NC(=O)N[C@@H](CCCCNC(=O)[C@H](Cc1c2ccccc2cc2ccccc12)NC(=O)[C@H]1CC[C@H](CNC(=O)CN2CCN(CC(=O)O)CCN(CC(=O)O)CCN(CC(=O)O)CC2)CC1)C(=O)O)C(=O)O (single isomer, unassigned) [68Ga-HTK03189A, metal not drawn] is 4.39

Sure, the documented Blood: Salivary ratio for O=C(O)CCCCC(NC(=O)N[C@@H](CCCCNC(=O)[C@H](Cc1c2ccccc2cc2ccccc12)NC(=O)[C@H]1CC[C@H](CNC(=O)CN2CCN(CC(=O)O)CCN(CC(=O)O)CCN(CC(=O)O)CC2)CC1)C(=O)O)C(=O)O (single isomer, unassigned) [68Ga-HTK03189B, metal not drawn] is 4.86

Sure, the documented Blood: Salivary ratio for O=C(O)CCC[C@H](NC(=O)N[C@@H](CCCCNC(=O)[C@H](Cc1ccc2ccccc2c1)NC(=O)[C@H]1CC[C@H](CNC(=O)CN2CCN(CC(=O)O)CCN(CC(=O)O)CCN(CC(=O)O)CC2)CC1)C(=O)O)C(=O)O [68Ga-HTK03169, metal not drawn] is 4.39

Sure, the documented Blood: Salivary ratio for O=C(O)CN1CCN(CC(=O)O)CCN(CC(=O)NC[C@H]2CC[C@H](C(=O)N[C@@H](Cc3c4ccccc4cc4ccccc34)C(=O)NCCCC[C@H](NC(=O)N[C@@H](C[C@@H](F)C(=O)O)C(=O)O)C(=O)O)CC2)CCN(CC(=O)O)CC1 [68Ga-HTK04033, metal not drawn] is 4.38

----------
assay: in vivo; design: species or system mice; details: male, NODSCID 1L2RγKO, mouse, iv, total radioactivity, Tumor uptake
Answer each item with its documented tissue uptake at 72 h.
Express the result in %ID/g but write the number alone.

Sure, the documented tissue uptake at 72 h for COc1ccc(CCCC(=O)NCC(=O)N[C@@H](CCCCNC(=O)CN2CCN(CC(=O)O)CCN(CC(=O)O)CCN(CC(=O)O)CC2)C(=O)NC[C@H]2CC[C@H](C(=O)N[C@@H](Cc3c4ccccc4cc4ccccc34)C(=O)NCCCC[C@H](NC(=O)N[C@@H](COCC(=O)O)C(=O)O)C(=O)O)CC2)cc1 [177Lu-HTK04028, metal not drawn] is 26.1

Sure, the documented tissue uptake at 72 h for O=C(O)CCC[C@H](NC(=O)N[C@@H](CCCCNC(=O)[C@H](Cc1c2ccccc2cc2ccccc12)NC(=O)[C@H]1CC[C@H](CNC(=O)CN2CCN(CC(=O)O)CCN(CC(=O)O)CCN(CC(=O)O)CC2)CC1)C(=O)O)C(=O)O [177Lu-HTK03149, metal not drawn] is 17.1

Sure, the documented tissue uptake at 72 h for COc1ccc(CCCC(=O)NCC(=O)N[C@@H](CCCCNC(=O)CN2CCN(CC(=O)O)CCN(CC(=O)O)CCN(CC(=O)O)CC2)C(=O)NC[C@H]2CC[C@H](C(=O)N[C@@H](Cc3c4ccccc4cc4ccccc34)C(=O)NCCCC[C@H](NC(=O)N[C@@H](CCCC(=O)O)C(=O)O)C(=O)O)CC2)cc1 [177Lu-HTK03170, metal not drawn] is 59.3

Sure, the documented tissue uptake at 72 h for O=C(O)CCC[C@H](NC(=O)N[C@@H](CCCCNC(=O)[C@H](Cc1c2ccccc2cc2ccccc12)NC(=O)[C@H]1CC[C@H](CNC(=O)[C@H](CCCCNC(=O)CN2CCN(CC(=O)O)CCN(CC(=O)O)CCN(CC(=O)O)CC2)NC(=O)CNC(=O)CCCc2ccc(Cl)cc2)CC1)C(=O)O)C(=O)O [177Lu-HTK03153, metal not drawn] is 69.1

Sure, the documented tissue uptake at 72 h for COc1ccc(CCCC(=O)NCC(=O)N[C@@H](CCCCNC(=O)CN2CCN(CC(=O)O)CCN(CC(=O)O)CCN(CC(=O)O)CC2)C(=O)NC[C@H]2CC[C@H](C(=O)N[C@@H](Cc3c4ccccc4cc4ccccc34)C(=O)NCCCC[C@H](NC(=O)N[C@@H](CSCC(=O)O)C(=O)O)C(=O)O)CC2)cc1 [177Lu-HTK04048, metal not drawn] is 66.3
